experiment: Stability of peptides in simulated intestinal fluid (pH 7.5); type: in vitro ADME; settings: simulated intestinal fluid, 24 h, 2 μM, pH 7.5
Where a SMILES comes first, the peptide text is derived from it. [ ]: non-standard residue; d: D form. ξ: configuration not given here. ξBip(2'-Et-4'-OMe) = CCc1cc(OC)ccc1-c1ccc(CC(N)C(=O)O)cc1; hhPhe = N[C@@H](CCCc1ccccc1)C(=O)O; hArg = N=C(N)NCCCC[C@H](N)C(=O)O; Nle = CCCC[C@H](N)C(=O)O; Ac3c = NC1(C(=O)O)CC1
value-type: % degradation of peptides in 24 h when incubated with simulated intestinal fluid (%)
Report only the number, with the unit % understood.

I am curious: what % degradation of peptides in 24 h when incubated with simulated intestinal fluid value has been reported for CCCC[C@H](NC(=O)[C@H](CC(C)C)NC(=O)[C@H](CCC(N)=O)NC(=O)[C@@H](NC(=O)[C@H](CCC(=O)O)NC(=O)C1(NC(=O)[C@@H](NC(=O)C2(N)CC2)C(C)C)CC1)[C@@H](C)CC)C(=O)N[C@@H](Cc1c[nH]cn1)C(=O)N[C@@H](CCC(N)=O)C(=O)N[C@@H](CCCCNC(=N)N)C(=O)N[C@@H](C)C(=O)N[C@@H](CCCCN)C(=O)NC(Cc1ccc(-c2ccc(OC)cc2CC)cc1)C(=O)N[C@@H](CCCc1ccccc1)C(N)=O (stereo partly shown) [Seq. ID. 610] (H-[Ac3c]V[Ac3c]EIQL[Nle]HQ[hArg]AK[ξBip(2'-Et-4'-OMe)][hhPhe]-NH2) ? 40

From: patent US8383581B2
